System: Human immunodeficiency virus 1
Test: Antiviral activity against Human immunodeficiency virus 1 3B infected in human SupT1 cells by cell-associated transmission assay
Type: functional, organism-based
Settings: SUP-T1
// reported EC50 for each item listed

- Molecule: "Cc1cn([C@H]2C=C[C@@H](COC(=O)CCCCCCCCCCCBr)O2)c(=O)[nH]c1=O"
  Units Label: "µM"
  Censor Symbol: ">"
  EC50: 206
- Molecule: "Cc1cn([C@H]2C=C[C@@H](CO)O2)c(=O)[nH]c1=O [STAVUDINE]"
  Units Label: "µM"
  Censor Symbol: "="
  EC50: 136
- Molecule: "CCSCCCCCCCCCCCC(=O)OC[C@@H]1C=C[C@H](n2cc(C)c(=O)[nH]c2=O)O1"
  Units Label: "µM"
  Censor Symbol: "="
  EC50: 46.5
- Molecule: "CCCCCCCCCCCCCC(=O)OC[C@@H]1C=C[C@H](n2cc(C)c(=O)[nH]c2=O)O1"
  Units Label: "µM"
  Censor Symbol: ">"
  EC50: 230
- Molecule: "Cc1cn([C@H]2C=C[C@@H](COC(=O)CCCCCCCCCCCN=[N+]=[N-])O2)c(=O)[nH]c1=O"
  Units Label: "µM"
  Censor Symbol: "="
  EC50: 22.4
